Quick reference for pIC50 among some compounds
target: ACC2 (Homo sapiens, UniProt O00763); experiment: In vitro ACC2 inhibition assay (ADP-Glo); type: biochemical; conditions: read-out: ACC2
Sequence (O00763 whole entry, species assumed): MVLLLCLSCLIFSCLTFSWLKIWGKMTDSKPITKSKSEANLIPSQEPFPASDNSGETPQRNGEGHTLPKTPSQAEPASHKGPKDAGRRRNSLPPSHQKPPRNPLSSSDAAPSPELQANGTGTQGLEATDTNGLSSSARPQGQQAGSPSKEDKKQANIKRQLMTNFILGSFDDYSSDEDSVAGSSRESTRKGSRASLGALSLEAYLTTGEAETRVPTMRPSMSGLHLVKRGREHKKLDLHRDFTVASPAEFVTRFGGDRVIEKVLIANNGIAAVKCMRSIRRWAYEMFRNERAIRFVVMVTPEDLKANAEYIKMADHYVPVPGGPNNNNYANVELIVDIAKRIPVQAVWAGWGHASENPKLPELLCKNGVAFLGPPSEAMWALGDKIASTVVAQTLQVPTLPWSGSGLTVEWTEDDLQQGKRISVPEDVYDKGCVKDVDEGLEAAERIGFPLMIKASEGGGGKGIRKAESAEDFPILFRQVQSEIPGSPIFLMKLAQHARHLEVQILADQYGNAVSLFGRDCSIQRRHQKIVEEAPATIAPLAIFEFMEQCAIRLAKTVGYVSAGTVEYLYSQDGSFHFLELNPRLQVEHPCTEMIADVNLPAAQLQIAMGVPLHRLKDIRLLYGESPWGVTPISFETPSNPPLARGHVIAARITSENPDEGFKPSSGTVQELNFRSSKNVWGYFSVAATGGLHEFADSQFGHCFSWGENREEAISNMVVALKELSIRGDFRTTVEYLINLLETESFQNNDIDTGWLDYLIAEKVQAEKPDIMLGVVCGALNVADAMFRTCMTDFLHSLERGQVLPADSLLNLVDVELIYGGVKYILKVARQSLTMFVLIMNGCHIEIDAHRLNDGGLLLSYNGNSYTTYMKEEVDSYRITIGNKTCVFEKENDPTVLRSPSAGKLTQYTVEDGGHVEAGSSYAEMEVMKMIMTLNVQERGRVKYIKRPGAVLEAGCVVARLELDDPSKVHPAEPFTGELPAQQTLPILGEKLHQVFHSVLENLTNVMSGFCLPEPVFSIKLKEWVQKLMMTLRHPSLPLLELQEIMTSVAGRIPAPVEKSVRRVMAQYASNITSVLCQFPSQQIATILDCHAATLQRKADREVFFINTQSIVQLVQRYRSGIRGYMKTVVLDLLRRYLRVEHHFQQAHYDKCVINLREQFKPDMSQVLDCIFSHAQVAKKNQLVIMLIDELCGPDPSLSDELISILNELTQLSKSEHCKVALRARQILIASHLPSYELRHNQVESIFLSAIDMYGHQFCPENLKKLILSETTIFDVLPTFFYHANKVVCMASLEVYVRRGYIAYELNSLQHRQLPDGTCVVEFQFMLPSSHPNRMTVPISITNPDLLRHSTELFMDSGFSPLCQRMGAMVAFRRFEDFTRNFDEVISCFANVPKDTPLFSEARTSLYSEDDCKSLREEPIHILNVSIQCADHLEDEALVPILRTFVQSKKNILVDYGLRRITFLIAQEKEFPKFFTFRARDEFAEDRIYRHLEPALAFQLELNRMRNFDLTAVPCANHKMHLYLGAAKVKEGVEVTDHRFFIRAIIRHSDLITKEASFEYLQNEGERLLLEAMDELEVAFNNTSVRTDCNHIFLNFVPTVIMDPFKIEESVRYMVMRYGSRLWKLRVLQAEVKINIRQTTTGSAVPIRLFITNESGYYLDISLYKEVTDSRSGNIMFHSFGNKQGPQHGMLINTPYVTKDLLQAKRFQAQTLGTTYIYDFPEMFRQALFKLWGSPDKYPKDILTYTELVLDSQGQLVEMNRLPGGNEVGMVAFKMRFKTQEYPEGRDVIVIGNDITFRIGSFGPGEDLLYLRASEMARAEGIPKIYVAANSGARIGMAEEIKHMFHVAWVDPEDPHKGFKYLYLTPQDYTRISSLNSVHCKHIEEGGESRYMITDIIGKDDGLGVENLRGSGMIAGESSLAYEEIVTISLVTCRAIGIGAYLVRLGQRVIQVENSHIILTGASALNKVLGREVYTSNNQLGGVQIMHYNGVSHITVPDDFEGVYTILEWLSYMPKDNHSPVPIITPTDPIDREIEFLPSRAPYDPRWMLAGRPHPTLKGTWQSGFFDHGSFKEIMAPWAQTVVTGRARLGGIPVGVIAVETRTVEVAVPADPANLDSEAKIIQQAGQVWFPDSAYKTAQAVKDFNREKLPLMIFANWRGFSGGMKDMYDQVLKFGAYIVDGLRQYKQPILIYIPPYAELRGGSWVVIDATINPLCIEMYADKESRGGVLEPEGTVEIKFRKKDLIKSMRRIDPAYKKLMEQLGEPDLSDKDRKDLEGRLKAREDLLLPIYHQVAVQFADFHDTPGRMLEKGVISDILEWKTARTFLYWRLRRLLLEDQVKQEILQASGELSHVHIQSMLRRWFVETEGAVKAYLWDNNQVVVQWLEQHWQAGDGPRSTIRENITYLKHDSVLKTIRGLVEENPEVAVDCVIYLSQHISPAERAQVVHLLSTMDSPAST
pIC50: −log10 of the molar value.

Solved entries (count: 8):
compound=COc1ccccc1[C@H](Cn1c(=O)n(CC(C)(C)O)c(=O)c2c(C)c(-c3ncco3)sc21)OC1CCOCC1 reading="> 7.00"
compound="CCOC(=O)c1sc2c(c1C)c(=O)n(CC(=O)O)c(=O)n2CC(OC(C)C)c1ccccc1 (centres unmarked) [I-89]" reading="> 6.00"
compound=COc1ccccc1[C@H](Cn1c(=O)n(CC(=O)O)c(=O)c2c(C)c(-c3ncco3)sc21)OC1CCOCC1 reading="> 7.00"
compound=CCc1ccccc1[C@H](Cn1c(=O)n(C(C)(C)C(=O)O)c(=O)c2c(C)c(-c3ncco3)sc21)OC1CCOCC1 reading="> 7.00"
compound=COCc1ccccc1[C@H](Cn1c(=O)n(C(C)(C)C(=O)O)c(=O)c2c(C)c(-c3ncco3)sc21)OC1CCOCC1 reading="> 7.00"
compound=Cc1c(-c2ncco2)sc2c1c(=O)n(C(C)(C)C(=O)O)c(=O)n2C[C@H](OC1COC1)c1ccccc1 reading="4.30 to 4.70"
compound=CCOC(=O)c1sc2c(c1C)c(=O)n(CC(=O)O)c(=O)n2CCc1c(F)cccc1F reading="4.70 to 5.30"
compound=Cc1c(-c2ncco2)sc2c1c(=O)n(C(C)(C)C(=O)O)c(=O)n2C[C@H](OC[C@@H](C)CO)c1ccccc1 reading="> 6.00"

Q) # get_value(readout= pIC50, system= ACC2 (Homo sapiens, UniProt O00763)) for CCOC(=O)c1sc2c(c1C)c(=O)n(CCO)c(=O)n2Cc1cccc2ccccc12
A) < 4.30

Q) Test system ACC2 (Homo sapiens, UniProt O00763); read-out pIC50; what value for Cc1c(C(=O)OCCO)sc2c1c(=O)n(CC(=O)O)c(=O)n2CCc1ccccc1 ?
A) > 5.30

Q) Write down the reported pIC50 of CCOC(=O)c1sc2c(c1C)c(=O)n(CCCCO)c(=O)n2CCc1ccccc1 , test system: ACC2 (Homo sapiens, UniProt O00763).
A) 4.70 to 5.30
